Numbers sourced from patent US20150225369A1.

- ASSAYED SYSTEM: HEK293 transfected with human DDR2 (Homo sapiens, UniProt Q16832)
- Construct: expressed in transfected cells; host or cells: HEK293 (PLT460F_(DDR2)-P7-1)
- Sequence (Q16832 22-855): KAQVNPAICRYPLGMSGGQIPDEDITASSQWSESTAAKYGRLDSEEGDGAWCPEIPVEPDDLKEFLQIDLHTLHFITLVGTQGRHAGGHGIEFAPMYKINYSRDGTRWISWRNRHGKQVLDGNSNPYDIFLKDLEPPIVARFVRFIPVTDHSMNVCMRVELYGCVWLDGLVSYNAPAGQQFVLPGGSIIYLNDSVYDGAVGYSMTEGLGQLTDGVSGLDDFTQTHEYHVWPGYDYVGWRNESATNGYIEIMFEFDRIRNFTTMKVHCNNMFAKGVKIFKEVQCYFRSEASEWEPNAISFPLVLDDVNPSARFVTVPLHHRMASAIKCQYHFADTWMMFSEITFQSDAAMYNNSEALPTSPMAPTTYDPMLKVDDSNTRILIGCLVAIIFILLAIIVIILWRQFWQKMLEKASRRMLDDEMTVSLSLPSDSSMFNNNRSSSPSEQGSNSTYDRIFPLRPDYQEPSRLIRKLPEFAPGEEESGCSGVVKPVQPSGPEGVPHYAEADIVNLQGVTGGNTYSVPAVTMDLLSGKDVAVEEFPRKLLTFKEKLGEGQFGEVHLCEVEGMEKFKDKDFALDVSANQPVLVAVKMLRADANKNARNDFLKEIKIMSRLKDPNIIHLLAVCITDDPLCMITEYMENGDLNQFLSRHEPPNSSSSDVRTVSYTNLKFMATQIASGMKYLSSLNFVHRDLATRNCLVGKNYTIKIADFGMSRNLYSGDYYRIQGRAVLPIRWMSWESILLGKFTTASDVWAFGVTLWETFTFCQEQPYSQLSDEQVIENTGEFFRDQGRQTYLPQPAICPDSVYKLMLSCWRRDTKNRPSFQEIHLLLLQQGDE
- PROCEDURE DETAILS: Phospho-DDR2 cellular assay (collagen II induced DDR2 phosphorylation, ELISA)
- Assay type: cell-based
- CONDITION CONTEXT: cellular phospho-DDR2; read-out: IC50 [p-DDR2]
MEASUREMENT TYPE: IC50
I'd appreciate it if you included the unit after the number.

Use these answered entries as a reference point.
# QUERY SMILES, IC50
records = [
    ("CNCCOc1ccc(C)cc1NC(=O)NCc1ccc(Oc2ccnc(C(=O)NC)c2)c(C)c1", "40 nM"),
    ("CNC(=O)c1cc(Oc2ccc(CNC(=O)Nc3cc(C(F)(F)F)ccc3-n3cncn3)cc2)ccn1", "41 nM"),
]

IN: Missing value: IC50, HEK293 transfected with human DDR2 (Homo sapiens, UniProt Q16832), entry `CNC(=O)c1cc(Oc2ccc(CNC(=O)Nc3cc(C)c(Cl)cc3OC3CCNCC3)cc2C)ccn1` . Fill in?
OUT: 33 nM
